B1: tRNA (parent)
chain: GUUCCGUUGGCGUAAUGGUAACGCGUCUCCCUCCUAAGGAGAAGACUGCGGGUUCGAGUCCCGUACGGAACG

Variants of: B1
Assay: yeast fitness relative to wild type (ratio to wild type); higher = fitter; tRNA-Arg(CCU), competitive growth, 37 C, YPD
Fewer inactive variants are shown than the library holds.
Entry flag: YES if yeast fitness reaches 0.6; NO if it does not.

1) U8G C34G C55G C62A G68A	NO
2) G10C A37C A42U	NO
3) C4U U8A G48A C55U	NO
4) C33G U54C C62A G68C	NO
5) C5G C27A A37C C55G	NO
6) G6A A20C C29A G44C	NO
7) C29A G44A U64C	NO
8) C5A C27G A57C	NO
9) A43G U53C C55U	NO
10) A45U C61A G67A	NO
11) A42U C46U	YES
12) C4A C30A	YES
13) C4G C11G C33G U47A	NO
14) C4G C31A A42C	NO
15) A14G C31U U35C A40G A65U	NO
16) G9A U13C U19C C34U	NO
17) C5U C31U C61G	NO
18) G9A U19G U59C C62G A65U	NO
19) A40G G48C C61G A65U	NO
20) U64A A69U	YES
21) A20G C31A C34G A45U	NO
22) C4G C49U C62U	YES
23) A15G A36U U59A	NO
24) U3G C24A C30U	NO
25) U2A C11U G18C C31U A42G C62U	NO
26) U28C G52C	YES
27) G6C C11U A15G A21U C30G G44A G52A	YES
28) C27U G38A U59G U64C A65U	NO
29) G25A C34A A36C G51C	NO
30) A15C A36U C46G G56A C60A C62G C66A	NO
31) A15C C31U C62G U64G A65G G67C	NO
32) C4A C29A	YES
33) U8G G10C A20G G58A	NO
34) C5U C66G	YES
35) A15U G25C G68A	NO
36) C5U C24U C33U G44C G68A	NO
37) G17A C22A A45C C46U C49U	NO
38) A42U A43G G67A	NO
39) G10A G48A A69C	YES
40) C4A G17A G41A U54A A57C	NO
41) C22A C24G A69U	NO
42) U19C C29A G39C A57G C61U C66U	NO
43) U16A C31A A40C	NO
44) G17A G18C G39C A65U	NO
45) C11G A21U U26C U47C G68C	NO
46) C22U A45U C62U	YES
47) G25A U28G C33G A45C	NO
48) C11U G12C	YES
49) G12A U32G C46A	NO
50) U13A C27G G52A U53C G63C	NO
51) U8C C34U	YES
52) C4G G41U C61A C66U	NO
53) U16C A40C A57U G68A	YES
54) C5A C33G	YES
55) U3A C5U A37U	NO
56) G10C A36U	NO
57) G52C A70C	YES
58) C29G C34U	NO
59) C22U C30A C34U G38C	NO
60) C11U C30A	YES
61) A14G A57C	NO
62) U19A U28A C31G A43G A45G	NO
63) G9A U16C A21G A42G	NO
64) A20C C31G G48A G50C C60G	YES
65) A14G U19C C60G	NO
66) U35A A42G A43C	NO
67) C5G U7A	YES
68) U2A G6C G68C	NO
69) G18C C34U	NO
70) G50A G51C C60G	NO
71) C4U C27A G51C	NO
72) C27U C49U A57G	YES
73) U26C C61U	YES
74) U13A A14U C49A	NO
75) A15U C22G A37G C55G C60G	NO
76) G12A G39C C46A	NO
77) U26A U32C U53A	NO
78) U2A G6C A14C	NO
79) U2C U16G C30G G63C	NO
